# measurement target: T1, Placenta Growth Factor (PlGF), human (human, UniProt P49763 21-149)
# T1 chain: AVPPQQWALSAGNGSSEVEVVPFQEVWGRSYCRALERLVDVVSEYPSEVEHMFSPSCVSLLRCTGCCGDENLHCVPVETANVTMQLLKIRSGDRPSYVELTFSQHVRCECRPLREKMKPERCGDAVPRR
# protocol: ELISA
pEC50: −log10 of the molar value.
Classify as follows. Reported pEC50 greater than or equal to 10: true (1). Reported pEC50 below: false (0).

* HC 6/SLC 5 (antibody) chain 1: GQGTLVTVSSASTKGPQPVLHQPPAMSSALGTTIRLTCTLRNDHDIGVYSVYWYQQRPGHPPRFLLRYFSQSDKSQGPQVPPRFSGSKDVARNRGYLSISELQPEDEAMYYCAMGARSRCWPRGFQSKHNSVTHVFGSGTQLTVLSQPKATPSVTLFPPSSEELQANKATLVCLMNDFYPGILTVTWKADGTPITQGVEMTTPSKQSNNKYAASSYLSLTPEQWRSRRSYSCQVMHEGSTVEKTVAPAECS chain 2: MSWAPVLLMLFVYCTGCGPQPVLHQPPAMSSALGTTIRLTCTLRNDHDIGVYSVYWYQQRPGHPPRFLLRYFSQSDKSQGPQVPPRFSGSKDVARNRGYLSISVTHVFGSGTQLTVLSQPKAQVQLVQ | false (0)

Request: Confirm if pEC50 reported for the binder HC 2/SLC 3 (antibody) chain 1: GQGTLVTVSSASQPVLHQPPAMSSALGTTIRLTCTLRNDHDIGVYSVYWYQQRPGHPPRFLLRYFSQSDKSQGPQVPPRFSGSKDVARNRGYLSISELQPEDEAMYYCAMGARSRCWPRGFQSKHNSVTHVFGSGTQLTVLSQPKATPSVTLFPPSSEELQANKATLVCLMNDFYPGILTVTWKADGTPITQGVEMTTPSKQSNNKYAASSYLSLTPEQWRSRRSYSCQVMHEGSTVEKTVAPAECS chain 2: MSWAPVLLMLFVYCTGCGPQPVLHQPPAMSSALGTTIRLTCTLRNDHDIGVYSVYWYQQRPGHPPRFLLRYFSQSDKSQGPQVPPRFSGSKDVARNRGYLSISVTHVFGSGTQLTVLSQPQVQLVQ is 10 or above.
Response: true (1)

Request: Has HC 4/SLC 6 (antibody) chain 1: GQGTLVTVSSASTKQPVLHQPPAMSSALGTTIRLTCTLRNDHDIGVYSVYWYQQRPGHPPRFLLRYFSQSDKSQGPQVPPRFSGSKDVARNRGYLSISELQPEDEAMYYCAMGARSRCWPRGFQSKHNSVTHVFGSGTQLTVLSQPKATPSVTLFPPSSEELQANKATLVCLMNDFYPGILTVTWKADGTPITQGVEMTTPSKQSNNKYAASSYLSLTPEQWRSRRSYSCQVMHEGSTVEKTVAPAECS chain 2: MSWAPVLLMLFVYCTGCGPQPVLHQPPAMSSALGTTIRLTCTLRNDHDIGVYSVYWYQQRPGHPPRFLLRYFSQSDKSQGPQVPPRFSGSKDVARNRGYLSISVTHVFGSGTQLTVLSQPKATQVQLVQ a recorded pEC50 greater than or equal to 10?
Response: false (0)
